biological target: MERTK (UniProt Q12866); test: phosphorylation enrichment, bacterial display (enrichment ratio); higher = better substrate or ligand; peptides without Tyr show the background;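 also: 11-residue human phosphosite peptides and single-mutation variants displayed on the E. coli surface, counted by deep sequencing, each peptide's frequency after selection divided by its frequency in the unselected input library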;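 also: frequency after pTyr selection over input frequency; kinase dosed for 20-30% of maximal phosphorylation in three min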
Sequence (Q12866 whole entry, looked up): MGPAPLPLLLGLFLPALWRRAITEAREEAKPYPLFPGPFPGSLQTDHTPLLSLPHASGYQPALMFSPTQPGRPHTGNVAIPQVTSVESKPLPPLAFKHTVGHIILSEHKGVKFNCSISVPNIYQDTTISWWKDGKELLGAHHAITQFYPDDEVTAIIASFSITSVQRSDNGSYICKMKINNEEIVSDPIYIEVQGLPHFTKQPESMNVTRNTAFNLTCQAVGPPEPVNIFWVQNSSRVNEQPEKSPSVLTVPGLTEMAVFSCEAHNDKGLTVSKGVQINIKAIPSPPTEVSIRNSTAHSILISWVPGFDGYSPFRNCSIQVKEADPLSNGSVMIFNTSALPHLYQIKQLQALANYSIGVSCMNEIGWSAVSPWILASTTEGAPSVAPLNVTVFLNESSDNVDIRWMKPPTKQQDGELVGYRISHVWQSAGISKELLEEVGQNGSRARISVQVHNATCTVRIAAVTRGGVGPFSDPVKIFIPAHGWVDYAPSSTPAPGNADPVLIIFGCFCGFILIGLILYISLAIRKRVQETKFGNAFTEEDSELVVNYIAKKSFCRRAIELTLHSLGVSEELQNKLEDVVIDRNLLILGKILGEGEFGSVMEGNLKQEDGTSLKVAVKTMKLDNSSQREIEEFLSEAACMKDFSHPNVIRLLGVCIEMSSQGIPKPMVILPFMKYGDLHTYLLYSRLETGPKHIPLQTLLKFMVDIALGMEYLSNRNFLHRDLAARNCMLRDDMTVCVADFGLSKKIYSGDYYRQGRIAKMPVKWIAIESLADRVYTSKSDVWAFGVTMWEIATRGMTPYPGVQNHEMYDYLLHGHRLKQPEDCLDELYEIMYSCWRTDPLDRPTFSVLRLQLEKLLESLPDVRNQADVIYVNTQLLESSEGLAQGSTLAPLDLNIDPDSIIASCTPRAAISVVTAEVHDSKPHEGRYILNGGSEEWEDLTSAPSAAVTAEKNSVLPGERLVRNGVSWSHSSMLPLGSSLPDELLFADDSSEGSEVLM
MEASUREMENT KIND: phosphorylation enrichment
Give the figure only, with no unit attached.

## Task Report phosphorylation enrichment for FSLPAFMDRRD [COX4I1_Y38_Y38F] please.
## Result 0.4

## Task What do we get for YLELNYKEDEY [MME_Y502] ?
## Result 0.923

## Task Item: NFRTIYVNANE [KCNH2_Y475_T474I]
## Result 0.367

## Task And for PTTKTYFPHFF [HBA1_Y43_D48Y_YF] ?
## Result 0.607

Continuing:
## Task // query phosphorylation enrichment value for entry KQFWRYFPGNL [SLC25A4_Y112_A114P]
## Result 0.402

## Task What would you report for SDGKRYRVPSD [HHIPL2_Y395_H391D] ?
## Result 0.409

## Task And IIGNGYFFHVF [MYBPC3_Y1135_R1138H_YF] ?
## Result 0.254

## Task How about this sequence: SECCKYKTDNP [OSMR_Y689_I691T]
## Result 0.492

## Task Can you handle SPPPAYTPMSG [ERBB4_Y1056] next?
## Result 0.529
